Listed compounds paired with reported melting point

Check out these entries, answers already filled in.
Cc1ncccc1-c1cc(-c2c(C)noc2C)cc2[nH]c(N3CCN(C)CC3)nc12    238 to 240 °C
Cc1noc(C)c1-c1cc(-c2c(C)nn(C)c2C)c2nc(N3CCN(C)CC3)[nH]c2c1    195 to 197 °C
Cc1ccc(C#N)cc1-c1cc(-c2c(C)noc2C)cc2[nH]c(N3CCN(C)CC3)nc12    133 to 135 °C

Could you share which melting point value was measured for Cc1noc(C)c1-c1cc(-c2cccc(C#N)c2C)c2nc(N3CCN(C)CC3)[nH]c2c1 ?
179 to 182 °C

* * *

target: Brd4 bromodomain 1 (BRD4(1)) (Homo sapiens, UniProt O60885); assay: Inhibition of tetra-acetylated histone H4 binding to Brd4 bromodomain 1, measured by FRET (HTRF); parameters: made in house; host or cells: E. coli BL21(DE3); conditions: 2 h at room temperature
pIC50: −log10 of the molar value.
MEASURE: pIC50

Cc1nc2c(-c3c(C)cnn3C)cc(-c3c(C)cnn3C)cc2[nH]1 [Example Compound 167]    5.52 to 6.52
Cc1noc(C)c1-c1cc(-c2c(C)noc2C)c2cn[nH]c2c1 [Example Compound 87]    ≥ 6.52

Item: Cc1noc(C)c1-c1cc(-c2c(C)noc2C)c2nc(NCCO)[nH]c2c1 [Example Compound 150] Test system: Brd4 bromodomain 1 (BRD4(1)) (Homo sapiens, UniProt O60885) Read-out: pIC50 Value: ?
≥ 6.52

Cc1noc(C)c1-c1cc(-c2cccc3c2cnn3C)c2nc[nH]c2c1 [Example Compound 23] , same question.
≥ 6.52

Would you kindly repeat that for Cc1noc(C)c1-c1cc(Nc2ccc(Cl)cc2)c2nc[nH]c2c1 [Example Compound 40] ?
≥ 6.52

* * *

biological target: Brd4 bromodomain 1 (BRD4(1)) (Homo sapiens, UniProt O60885); assay: Inhibition of tetra-acetylated histone H4 binding to Brd4 bromodomain 1, measured by FRET (HTRF); design: made in house; host or cells: E. coli BL21(DE3); conditions: 2 h at room temperature
MEASURE: IC50

Worked examples follow.
Cc1nc2c(-c3cccc(F)c3C#N)cc(-c3c(C)noc3C)cc2[nH]1    300 to 3000 nM
Cc1nc2c(Oc3cc(C(=O)O)ccc3C)cc(-c3c(C)noc3C)cc2[nH]1    ≤ 300 nM
Cc1nc2c(-c3cc(C(F)(F)F)ccc3F)cc(-c3c(C)noc3C)cc2[nH]1    ≤ 300 nM

Entry under review: CSc1nc2cc(-c3c(C)noc3C)cc(-c3c(C)nn(C)c3C)c2n1C . Reported IC50?
≤ 300 nM

// same read-out, input: Cc1nc2c(-c3cscc3C)cc(-c3c(C)noc3C)cc2[nH]1
≤ 300 nM

Same for Cc1noc(C)c1-c1cc(-c2cccc(C#N)c2C)c2nc(N3CCN(C)CC3)[nH]c2c1
300 to 3000 nM

Continue with Cc1nc2c(CCc3ccccc3)cc(-c3c(C)noc3C)cc2[nH]1
≤ 300 nM

How about this compound: Cc1nc2c(-c3ccccc3C)cc(-c3c(C)noc3C)cc2[nH]1
≤ 300 nM

Quick one: Cc1nc2c(-c3cccc(S(C)(=O)=O)c3)cc(-c3c(C)noc3C)cc2[nH]1
≤ 300 nM

What do we get for Cc1nc2c(Nc3cccnc3C)cc(-c3c(C)noc3C)cc2[nH]1 ?
≤ 300 nM

Quick one: Cc1nc2c(-c3ccc4scnc4c3)cc(-c3c(C)noc3C)cc2[nH]1
≤ 300 nM

* * *

The molecules listed here are annotated with their pIC50.
biological target: Brd4 bromodomain 1 (BRD4(1)) (Homo sapiens); experiment: Inhibition of tetra-acetylated histone H4 binding to Brd4 bromodomain 1, measured by FRET (HTRF); design: made in house; host or cells: E. coli BL21(DE3); settings: 2 h at room temperature
pIC50: −log10 of the molar value.

Example results:
Cc1noc(C)c1-c1cc(-c2ccc[nH]c2=O)c2nc[nH]c2c1 [Example Compound 56]    5.52 to 6.52
Cc1noc(C)c1-c1cc(Nc2cccc(F)c2)c2nc[nH]c2c1 [Example Compound 32]    ≥ 6.52
Cc1nc2c(N3C(=O)CCC3C)cc(-c3c(C)noc3C)cc2[nH]1 (stereo not shown) [Example Compound 121]    5.52 to 6.52

Now look at this entry.
# pIC50 lookup, item Cc1nc2c(-c3ccccc3F)cc(-c3c(C)noc3C)cc2[nH]1 [Example Compound 91]
≥ 6.52

* * *

Items are presented alongside their recorded IC50.
biological target: Brd4 bromodomain 1 (BRD4(1)) (Homo sapiens, UniProt O60885); assay: Inhibition of tetra-acetylated histone H4 binding to Brd4 bromodomain 1, measured by FRET (HTRF); design: made in house; host or cells: E. coli BL21(DE3); details: 2 h at room temperature

Cc1noc(C)c1-c1cc(-c2ccnn2C)cc2[nH]cnc12    300 to 3000 nM
CSc1nc2c(-c3c(C)nn(C)c3C)cc(-c3c(C)noc3C)cc2n1C    300 to 3000 nM
Cc1ccc(-c2cc(-c3c(C)noc3C)cc3[nH]c(C)nc23)nn1    300 to 3000 nM
Cc1nc2c(-c3cccc(C(N)=O)c3C)cc(-c3c(C)noc3C)cc2[nH]1    ≤ 300 nM
COCc1ccccc1-c1cc(-c2c(C)noc2C)cc2[nH]c(C)nc12    ≤ 300 nM

# IC50 lookup, item Cc1noc(C)c1-c1cc(Nc2ccccc2)c2nc[nH]c2c1
≤ 300 nM

Another compound: Cc1ccncc1-c1cc(-c2c(C)noc2C)cc2cn[nH]c12
≤ 300 nM

Moving on to Cc1nc2c(-c3ccccc3C#N)cc(-c3c(C)noc3C)cc2[nH]1
3000 to 30000 nM

Try this compound next: Cc1nc2c(-c3c(C)cnn3C)cc(-c3c(C)noc3C)cc2[nH]1
≤ 300 nM

Next: Cc1noc(C)c1CNc1cc(-c2c(C)noc2C)cc2[nH]cnc12
≤ 300 nM

How about COc1ccc(F)cc1-c1cc(-c2c(C)noc2C)cc2[nH]c(C)nc12 ?
≤ 300 nM

Here is the next compound: Cc1nc2c(-c3cccnc3)cc(-c3c(C)noc3C)cc2[nH]1
≤ 300 nM
